// data source = ChEMBL document CHEMBL4229418

molecular target: Sterol O-acyltransferase 1 (Mus musculus, UniProt Q61263); experiment: Inhibition of ACAT1 in mouse IC21 cells in absence of BSA; format: cell-based
RECORDED METRIC: IC50

[in] Look up and state reported IC50 for CC(C)c1cc(C(C)C)c(CC(=O)NS(=O)(=O)Oc2c(C(C)C)cccc2C(C)C)c(C(C)C)c1 [AVASIMIBE]
[out] 60 nM

----------
species on record: Oryctolagus cuniculus; assay: Selectivity ratio of IC50 for inhibition of SOAT2 in New Zealand white rabbit intestinal microsomes to IC50 for inhibition of SOAT1 in arterial homogenates isolated from 1% cholesterol fed New Zealand white rabbit
Give measured Ratio IC50 for each item. Keep answers brief.
Numbers only.

Past entries and their recorded results:
TEST SMILES	Ratio IC50
COC(=O)c1ccc2oc(SCCCCCC(=O)Nc3c(C(C)C)cccc3C(C)C)nc2c1	3
CC(C)c1cccc(C(C)C)c1NC(=O)CCCCCCCSc1nc2ccccc2s1	5.1
CC(C)c1cccc(C(C)C)c1NC(=O)CCCCSc1nc2ccccc2[nH]1	1.1
CC(C)c1cccc(C(C)C)c1NC(=O)CCCCCSc1nc2cccc(CN(C)C)c2o1	1.4
CC(C)c1cccc(C(C)C)c1NC(=O)CCSc1nc2ccccc2s1	4.8

Dear colleague, could you please provide Ratio IC50 for the compounds listed below?
1. CC(C)c1cccc(C(C)C)c1NC(=O)CCCCCSc1nc2cc(O)ccc2o1
2. CC(C)c1cccc(C(C)C)c1NC(=O)CCCCCCSc1nc2ccccc2[nH]1
3. CC(C)c1cccc(C(C)C)c1NC(=O)CCCCCSc1nc2cc(CN(C)C)ccc2o1
4. CC(C)c1cccc(C(C)C)c1NC(=O)CCCCCSc1nc2cc(CO)ccc2o1

[out]
2.8
1.4
0.7
1.2

Dear colleague, could you please provide Ratio IC50 for the compounds listed below?
1. COC(=O)c1ccc2nc(SCCCCCC(=O)Nc3c(C(C)C)cccc3C(C)C)oc2c1
2. COC(=O)c1cccc2nc(SCCCCCC(=O)Nc3c(C(C)C)cccc3C(C)C)oc12
3. COC(=O)c1cccc2oc(SCCCCCC(=O)Nc3c(C(C)C)cccc3C(C)C)nc12

[out]
1. 3.8
2. 10.3
3. 31.2

----------
target: Sterol O-acyltransferase 1 (Mus musculus, UniProt Q61263); assay: Inhibition of ACAT1 in mouse IC21 cells in presence of BSA; type: cell-based
RECORDED METRIC: IC50 (nM)
Numbers only, in nM.

[in] Look up and state reported IC50 for `CC(C)c1cc(C(C)C)c(CC(=O)NS(=O)(=O)Oc2c(C(C)C)cccc2C(C)C)c(C(C)C)c1`
[out] 760

----------
Target: Sterol O-acyltransferase 1 (Rattus norvegicus)
Sequence (O70536 whole entry): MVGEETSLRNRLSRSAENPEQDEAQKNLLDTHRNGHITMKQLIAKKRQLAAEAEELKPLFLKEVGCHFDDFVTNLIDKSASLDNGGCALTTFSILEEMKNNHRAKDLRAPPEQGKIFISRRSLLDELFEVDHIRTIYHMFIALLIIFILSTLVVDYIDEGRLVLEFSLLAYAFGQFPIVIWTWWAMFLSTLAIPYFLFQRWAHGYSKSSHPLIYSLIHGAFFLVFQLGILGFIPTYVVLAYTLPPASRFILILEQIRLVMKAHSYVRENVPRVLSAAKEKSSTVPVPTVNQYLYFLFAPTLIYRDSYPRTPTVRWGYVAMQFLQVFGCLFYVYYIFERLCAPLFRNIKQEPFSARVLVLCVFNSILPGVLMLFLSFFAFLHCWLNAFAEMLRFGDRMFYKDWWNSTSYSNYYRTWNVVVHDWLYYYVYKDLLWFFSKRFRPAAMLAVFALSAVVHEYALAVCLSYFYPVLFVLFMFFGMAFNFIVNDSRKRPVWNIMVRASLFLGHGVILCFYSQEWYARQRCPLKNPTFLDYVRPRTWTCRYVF
Test: Inhibition of ACAT1 in 1 mg/ml rat liver microsomes
RECORDED METRIC: pIC50
Numbers only, as −log10 of the molar value.

[in] Look up and state reported pIC50 for `CC(C)c1cc(C(C)C)c(CC(=O)NS(=O)(=O)Oc2c(C(C)C)cccc2C(C)C)c(C(C)C)c1`
[out] 4.92

----------
Target: Sterol O-acyltransferase 1 (Mus musculus, UniProt Q61263)
Sequence (Q61263 whole entry): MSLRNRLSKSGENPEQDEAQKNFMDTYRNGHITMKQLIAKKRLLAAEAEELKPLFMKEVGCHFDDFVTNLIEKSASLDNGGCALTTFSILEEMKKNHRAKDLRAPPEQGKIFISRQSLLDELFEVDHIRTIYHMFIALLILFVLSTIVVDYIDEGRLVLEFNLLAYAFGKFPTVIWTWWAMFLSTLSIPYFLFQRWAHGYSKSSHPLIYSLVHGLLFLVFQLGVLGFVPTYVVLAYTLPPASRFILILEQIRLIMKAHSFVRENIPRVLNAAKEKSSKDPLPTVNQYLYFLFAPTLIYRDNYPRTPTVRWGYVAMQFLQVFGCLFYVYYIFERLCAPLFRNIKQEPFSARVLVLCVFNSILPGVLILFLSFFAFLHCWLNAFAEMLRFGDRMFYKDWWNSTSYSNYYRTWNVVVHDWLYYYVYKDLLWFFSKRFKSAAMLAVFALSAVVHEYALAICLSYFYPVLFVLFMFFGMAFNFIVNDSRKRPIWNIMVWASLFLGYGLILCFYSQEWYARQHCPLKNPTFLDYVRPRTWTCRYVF
Assay: Inhibition of ACAT1 in mouse J774 cells assessed as reduction in esterified cholesterol accumulation after 18 hrs in presence of 25-hydroxycholesterol
Type: cell-based
Give measured pIC50 for each item. Keep answers brief.
Answers are plain numbers, as −log10 of the molar value.

Past entries and their recorded results:
TEST SMILES	RECORDED METRIC	QUANTITATIVE READOUT
CC(C)c1cccc(C(C)C)c1NC(=O)CCCCCCCCSc1nc2ccccc2[nH]1	pIC50	6.52
CC(C)c1cccc(C(C)C)c1NC(=O)CCCCCSc1nc2ccc(O)cc2o1	pIC50	5.64
CC(C)c1cccc(C(C)C)c1NC(=O)CCCCSc1nc2ccccc2[nH]1	pIC50	5.28

Dear colleague, could you please provide pIC50 for the compounds listed below?
1. CC(C)c1cccc(C(C)C)c1NC(=O)CCCCCSc1nc2cc(O)ccc2o1
2. CC(C)c1cccc(C(C)C)c1NC(=O)CCCCCCCSc1nc2ccccc2[nH]1
3. CC(C)c1cccc(C(C)C)c1NC(=O)CCCCCSc1nc2ccccc2[nH]1

[out]
5.55
7.52
6.46

----------
species: Oryctolagus cuniculus; assay: Selectivity ratio of IC50 for inhibition of SOAT2 in New Zealand white rabbit intestinal microsomes to IC50 for inhibition of SOAT1 in arterial homogenates isolated from 1% cholesterol fed New Zealand white rabbit
RECORDED METRIC: Ratio IC50

Past entries and their recorded results:
TEST SMILES	RESULT
CC(C)c1cccc(C(C)C)c1NC(=O)CCCCCCSc1nc2ccccc2s1	4
CC(C)c1cccc(C(C)C)c1NC(=O)CCCCCSc1nc2c(CO)cccc2o1	4
CC(C)c1cccc(C(C)C)c1NC(=O)CCCCCSc1nc2cccc(CO)c2o1	2
CC(C)c1cccc(C(C)C)c1NC(=O)CCCCCSc1nc2ccncc2o1	3.9
CC(C)c1cccc(C(C)C)c1NC(=O)CCCCCSc1nc2c(N(C)C)cccc2o1	4.1

Dear colleague, could you please provide Ratio IC50 for the compounds listed below?
1. CC(C)c1cccc(C(C)C)c1NC(=O)CCCCCCCCCSc1nc2ccccc2s1
2. CC(C)c1cccc(C(C)C)c1NC(=O)CCCCCCCCCSc1nc2ccccc2o1
3. CC(C)c1cccc(C(C)C)c1NC(=O)CCCCCSc1nc2cnccc2o1
4. CC(C)c1cccc(C(C)C)c1NC(=O)CSc1nc2ccccc2o1
5. CC(C)c1cccc(C(C)C)c1NC(=O)CCCCCCCCSc1nc2ccccc2[nH]1
6. CC(C)c1cccc(C(C)C)c1NC(=O)CCCCCSc1nc2ccccc2s1
7. CC(C)c1cccc(C(C)C)c1NC(=O)CCCCCSc1nc2ccc(O)cc2o1
8. CC(C)c1cccc(C(C)C)c1NC(=O)CCCCCCCSc1nc2ccccc2o1

[out]
[2.2, 2.3, 3.3, 5.7, 2.2, 1.3, 1.5, 5.5]

----------
species on record: Oryctolagus cuniculus; test: Selectivity ratio of IC50 for inhibition of SOAT2 in New Zealand white rabbit intestinal microsomes to IC50 for inhibition of SOAT1 in arterial homogenates isolated from 1% cholesterol fed New Zealand white rabbit
RECORDED METRIC: Ratio IC50
Answers are plain numbers.

Past entries and their recorded results:
TEST SMILES	Ratio IC50
CC(C)c1cccc(C(C)C)c1NC(=O)CCCCCSc1nc2ccc(CN(C)C)cc2o1	2.8
Cc1ccc2nc(SCCCCCC(=O)Nc3c(C(C)C)cccc3C(C)C)oc2c1	3.2
CC(C)c1cccc(C(C)C)c1NC(=O)CCCCCSc1nc2cccnc2o1	1.5
CC(C)c1cccc(C(C)C)c1NC(=O)CCCCCSc1nc2ccc(CO)cc2o1	2.4

Dear colleague, could you please provide Ratio IC50 for the compounds listed below?
1. CC(C)c1cccc(C(C)C)c1NC(=O)CCCCCSc1nc2cccc(C(=O)O)c2o1
2. CC(C)c1cccc(C(C)C)c1NC(=O)CCCCCSc1nc2c(CN(C)C)cccc2o1
3. CC(C)c1cccc(C(C)C)c1NC(=O)CCCCCCSc1nc2ccccc2o1
4. CC(C)c1cccc(C(C)C)c1NC(=O)CCCCCCCSc1nc2ccccc2[nH]1
5. CC(C)c1cccc(C(C)C)c1NC(=O)CCCCCCCCCCCCCCSc1nc2ccccc2o1

[out]
[1, 7.6, 6, 1.7, 1.1]

Dear colleague, could you please provide Ratio IC50 for the compounds listed below?
1. CC(C)c1cccc(C(C)C)c1NC(=O)CCCCCSc1nc2c(O)cccc2o1
2. CC(C)c1cccc(C(C)C)c1NC(=O)CCCCCSc1nc2cc(C(=O)O)ccc2o1
3. CC(C)c1cccc(C(C)C)c1NC(=O)CCCSc1nc2ccccc2[nH]1
4. CC(C)c1cccc(C(C)C)c1NC(=O)CCCCCCCCCSc1nc2ccccc2[nH]1
5. CC(C)c1cccc(C(C)C)c1NC(=O)CCCCCSc1nc2ccc(N(C)C)cc2o1

[out]
1. 1
2. 1.3
3. 2.7
4. 1.5
5. 6.3

Dear colleague, could you please provide Ratio IC50 for the compounds listed below?
1. CC(C)c1cccc(C(C)C)c1NC(=O)CCCCCCCCCCCCCCSc1nc2ccccc2s1
2. CC(C)c1cccc(C(C)C)c1NC(=O)CCCCCSc1nc2ccccc2[nH]1
3. CC(C)c1cccc(C(C)C)c1NC(=O)CCCCCSc1nc2cc(N(C)C)ccc2o1

[out]
1.1
1.5
5.8

[in] Look up and state reported Ratio IC50 for `CC(C)c1cccc(C(C)C)c1NC(=O)CCCSc1nc2ccccc2s1`
[out] 3.6
